Listed here are compounds together with their documented selectivity ratio.
Procedure Text: Selectivity index, ratio of IC50 for cytotoxicity against mouse NIH3T3 cells to IC50 for cytotoxicity against human HepG2 cells
Type: toxicity, cell-based
Assay Setup: NIH3T3 cells versus HepG2 cells, read-out: Ratio IC50
Form: value (number only, do not type unit).

Worked set:
{"columns": ["Substance Smiles", "selectivity ratio"],
 "data": [
  ["O=C(CCl)Nc1ccc(-c2nc3cc(F)ccc3o2)cc1", 1.13],
  ["Cc1ccc2oc(-c3ccc(NC(=O)CN4CCN(CCCN(C)C)CC4)cc3)nc2c1", 8.36]
]}

**Query** Param item = Cc1cc(-c2nc3cc(Cl)ccc3o2)ccc1NC(=O)CN1CCN(CCCN(C)C)CC1 ; retrieve measured selectivity ratio.
**Result** 2.56

**Query** Param item = Cc1cc(-c2nc3cc(F)ccc3o2)ccc1NC(=O)CN1CCN(CCCN(C)C)CC1 ; retrieve measured selectivity ratio.
**Result** 9.19

**Query** GET /values?readout=selectivity ratio&item= Cc1cc(-c2nc3cc(Cl)ccc3o2)ccc1NC(=O)CN1CCN(CCN(C)C)CC1
**Result** 4.95

Measured values drawn from ChEMBL document CHEMBL4732094 for this set.
